Molecular target: HIV-1 Env of isolate MGRM-D-011 (subtype D) (HIV-1)
Assay: cell-based or functional assay
MEASURED ATTRIBUTE: IC50 (neutralization) (ng/mL)
Numbers only, in ng/mL.

Find the recorded IC50 (neutralization) belonging to PGT-128 (antibody, V domains shown) VH: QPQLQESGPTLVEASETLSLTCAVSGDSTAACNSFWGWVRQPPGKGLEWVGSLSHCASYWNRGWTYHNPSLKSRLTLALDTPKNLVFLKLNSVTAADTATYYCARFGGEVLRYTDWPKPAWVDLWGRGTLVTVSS VL: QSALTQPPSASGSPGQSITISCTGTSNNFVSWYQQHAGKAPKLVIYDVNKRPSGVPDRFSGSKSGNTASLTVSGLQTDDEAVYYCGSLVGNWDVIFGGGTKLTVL and report it.
7
